Recorded values, source PubChem BioAssay (NCI).

Tested on: COLO 205 colon
Experiment: NCI-60 one-dose screen, 48 h
Conditions: 10 µM unless noted
About 83,000 compounds went through this panel and 20% of them were active in at least one assay; those are over-represented in the sample as a whole. Calls of active or inactive are those of the source. Rule for the calls: active = growth percent below 10; inactive = the rest.
One label from this list, please: active, inactive

Recorded test outcome, item COc1cc(C(=O)c2cc(C(C)=O)c3cccc(C)n23)cc(OC)c1OC inactive

Please share the test call associated with CN1CCN(Cc2ccc(NC(=O)c3cncc(C#Cc4cnc5ccc(OCC6COC6)nn45)c3)cc2C(F)(F)F)CC1 . active

In this assay, the call recorded for O=C1C(N2CCN(c3ccccc3)CC2)=C(Cl)C(=O)c2ncccc21 was what? inactive

Give the logged outcome of this assay for the following compound: N#C/C(=N\Nc1ccc(F)cc1)C(=O)Nc1cc(-c2ccccc2)nn1-c1ccccc1 active

GET /call?item= NS(=O)(=O)c1ccc(Nc2nc(N/N=C/C=C/c3ccccc3)nc(Nc3ccccc3)n2)cc1 returns the recorded outcome of this test. inactive

// outcome(item) with item = C#CCOc1ccc(-c2csc(NC(=O)C=C)n2)cc1NS(=O)(=O)c1cccc2c(N(C)C)cccc12 inactive

Please state the recorded outcome for this compound: COc1cc(C(=O)c2cc(C(C)=O)c3c(C)cccn23)cc(OC)c1OC inactive

Could you kindly confirm the outcome this assay logged for CCn1c2ccc(/C=N/N(C)S(=O)(=O)CCN(C)C)cc2c2cc(/C=N/N(C)S(=O)(=O)CCN(C)C)ccc21 ? inactive

Per the records of this test, what outcome belongs to COc1ccc(-c2c3c(cn2Cc2cccc(OC)c2)-c2oncc2CCC3)cc1 ? inactive

Entry COc1ccc(C2c3[nH]c4ccc(Cl)cc4c3CCN2c2oc(CO)nc2C#N)cc1 (configuration not stated) : call = ? inactive

How did this test come out for O=C(NNc1nc2cc(F)cc(F)c2n2cccc12)c1cccnn1 ? inactive

I'd appreciate the recorded outcome for CCc1cc(OC(=O)N2CCN(CCC(C)(COC(C)(C)C)COC(C)(C)C)CC2)ccc1Nc1cc(-c2ccc(-n3cccn3)cc2)[nH]n1 from this test. inactive

Check the results log: what was the call for O=C(COc1ccc(/C=C2\C(=O)Nc3ccc(Cl)cc32)cc1)Nc1ccc(Cl)cc1 ? inactive

Please share the test call associated with CCCCCCN1C=C/C(=C\C(=O)n2ccc3ccccc32)c2ccccc21 . inactive

State the result this test recorded for CCCCCCNC(=O)Oc1ccc(/C(=C(/C)c2ccc(Cl)cc2)c2ccc(OCCN3CCCCCC3)cc2)cc1 . inactive

Recorded test outcome, item CN1CC[C@@H]2[C@@]3(C)CC[C@H](O)C(C)(C)[C@@H]3CC[C@@]2(C)[C@]2(C)CC[C@@]3(CO)CCC(C)(C)C[C@@H]3C12 (some centres not stated) active

Dear colleague, could you share the recorded outcome for CCc1cc2c(cc1Cl)nc1c(=O)[nH]c(=O)nc-1n2CCOCC(C)(C)C when you have a moment? inactive

Call for entry C#Cc1cc(C(=O)Nc2ccc(CNCCN3CCOCC3)c(C(F)(F)F)c2)ccc1C : inactive

Please indicate how the test categorized C#C[C@]1(O)CC[C@H]2[C@@H]3CC=C4c5sc(Nc6cccc(F)c6)nc5CC[C@]4(C)[C@H]3CC[C@@]21C . active

Kindly provide the recorded test outcome for the following compound: CN1CCN(c2ccc(Nc3nc(NCCCNS(=O)(=O)c4ccc(C(F)(F)F)cc4)c4sccc4n3)cc2)CC1 active

// return assay outcome for O=c1nc(Nc2ccc([N+](=O)[O-])cc2O)sc2ccccc12 inactive

Hello, I am checking results. What call was entered for COc1ccc(-c2c(C(N)=O)c(N)n(Cc3nc4ccccc4[nH]3)c(=O)c2C#N)c(OC)c1 ? inactive

Would you mind telling me which call this test gave Cc1ccc2c(n1)C(=O)C(Cl)=C(Nc1ccc(C(=O)OC(C)(C)C)cc1)C2=O ? active

Could you check what this test reported for COc1cc(/C=N\NC(=O)c2ccc3nc(-c4ccc(Br)cc4)[nH]c3c2)cc(OC)c1OC ? inactive

How did this test come out for C#CCn1cc(/C=N/Nc2nc(-c3ccc(Br)cc3)cs2)c2ccccc21 ? inactive

What was the test verdict on CN1CCN(Cc2ccc(NC(=O)c3cncc(C#Cc4cnc5ccc(O[C@@H]6CCOC6)nn45)c3)cc2C(F)(F)F)CC1 ? active

What is the recorded call for this compound in the test? O=S(=O)(NCCCNc1nccc(-c2[nH]c(-c3ccccc3)nc2-c2ccc(F)c(O)c2)n1)c1ccccc1 inactive

Recorded test call requested for COCCOc1ccc2ncc(C#Cc3cncc(C(=O)Nc4ccc(CN5CCN(C)CC5)c(C(F)(F)F)c4)c3)n2n1 active

Could you check what this test reported for CSc1ccc(/C(=N/N=C(N)N)c2ccc(Cl)cc2)cc1 ? active

Please share the test call associated with CN(C)c1ccc(/C=N/Nc2nc(N/N=C/c3ccc(N(C)C)cc3)nc(N3CCCCC3)n2)cc1 . inactive

Please share the test call associated with Cc1ccccc1N1CCN(C2=C(Cl)C(=O)c3ncccc3C2=O)CC1 . inactive

Field: outcome | Entry: Clc1cccc(/C=N/Nc2nc(N/N=C/c3cccc(Cl)c3)nc(N3CCOCC3)n2)c1 inactive

Which outcome was entered for the compound CC1=C(C)C(=O)C(Nc2ccc3c(c2)OCO3)=C(Br)C1=O in this test? inactive

Which outcome was assigned to CCCC/C(=C\c1ccc(O)c(O)c1)C(=O)NC(Cc1ccccc1)C(=O)C(=O)NCCc1ccc(OC)cc1 (configuration not stated) in this test? inactive

Give the logged outcome of this assay for the following compound: O=C(CCCCCCNC(=O)C(O)(O)C(F)(F)F)Nc1ccc(Cl)cc1 active

Per the records of this test, what outcome belongs to C=CCSC1=NC2C(N(CC)C(=O)N2CC)N1/N=C/C=C/c1ccccc1OC (configuration not stated) ? inactive

Kindly provide the recorded test outcome for the following compound: CCC(=C(c1ccc(OCCN(C)C)cc1)c1ccc(OCCN(C)C)cc1)c1ccc(Cl)cc1 active
